# Tested on: NCI-H358
# test.summary: relative viability (nuclei count vs DMSO), 5 days (fraction); higher = more cells survive
# cond: first compound 0.6325 µM
As shown below, each of these compounds has a reported relative viability value.

compound	relative viability
Cc1csc(=NC2CCCCC2)n1/N=C/c1ccc(O)c(O)c1O [MIM1] + Cc1nc(NC(=O)N2CCC[C@H]2C(N)=O)sc1-c1ccnc(C(C)(C)C(F)(F)F)c1 [Alpelisib] (partner 2 µM)	0.881
CN1CCN(CCOc2cc(OC3CCOCC3)c3c(Nc4c(Cl)ccc5c4OCO5)ncnc3c2)CC1 [Saracatinib] + COc1cc2c(Oc3ccc(NC(=O)C4(C(=O)Nc5ccc(F)cc5)CC4)cc3F)ccnc2cc1OCCCN1CCOCC1 [Foretinib] (partner 0.25 µM)	0.421
